Test: in vitro
Format: in vitro ADME
Settings: human, Caco-2
// Papp A→B at 90 min lookup, one value per entry
Measurement Kind: Papp A→B at 90 min (×10⁻⁶ cm/s)

1. CC(C)(C)[C@H](N)C(=O)OC[C@H]1O[C@@](C#N)(c2ccc3c(N)ncnn23)[C@H](O)[C@@H]1OC(=O)CC1CCCCC1 15
2. CC(C)CC(=O)OC[C@H]1O[C@@](C#N)(c2ccc3c(NC(=O)[C@@H](N)Cc4ccc(F)cc4)ncnn23)[C@H](O)[C@@H]1O 0.07
3. CC(C)[C@H](N)C(=O)Nc1ncnn2c([C@]3(C#N)O[C@H](COC(=O)CC4CCCCC4)[C@@H](O)[C@H]3O)ccc12 0.14
4. CC1(C)CCC(CC(=O)OC[C@H]2O[C@@](C#N)(c3ccc4c(N)ncnn34)[C@H](O)[C@@H]2O)CC1 1.2
5. CNc1nc(N)nc2c1ncn2[C@@H]1O[C@H](COC(=O)C(C)C)[C@@H](OC(=O)CC2CCCCC2)[C@@]1(C)F 6.3
